Test system: Human papillomavirus type 1a E7 protein (residues 1-88)
assay.notes: HPV1a E7 small-molecule binders, primary screen, biochemical, small-molecule microarray, residues 1-88, 635 nm (AID 1129)
run.conditions: small-molecule microarray binding, fluorescence 635 nm; higher = more signal
measurement.type: composite z-score

Look at this compound and give its reported composite z-score. C[n+]1ccc(CCCO)cc1
-1.41

What do you get for CC(C)(C)OC(=O)CC[C@@]1(C(=O)O)N=C(c2ccc(OCCCO)cc2)O[C@@H]1c1ccccc1CN=[N+]=[N-] ?
0.807

What do you get for O=C1C[C@@](C(=O)NCC(F)(F)F)(c2ccc([N+](=O)[O-])cc2)[C@@H](c2ccc(CO)cc2)N1C1CCCCC1 ?
1.22

What do you get for COCCOC(=O)N1C(=O)[C@@]2(c3cc(C#CC4=CCCCC4)ccc31)[C@H](c1ccc(O)cc1)N1[C@H](c3ccccc3)[C@H](c3ccccc3)OC(=O)[C@H]1[C@@H]2C(=O)Nc1nc2ccccc2s1 ?
1.21

What do you get for Cc1ccc(S[C@]2(C(=O)NC(C)C)CC(=O)N(Cc3ccccc3C(F)(F)F)[C@@H]2c2ccc(CO)cc2I)cc1 ?
-0.0732

What do you get for CCOc1cc(C(O)C2C=CC3C(=O)N(C)C(=O)C3N2N2CCCCC2)ccc1O (centres undefined) ?
-0.158

What do you get for COC(=O)[C@@]1(Cc2ccccc2)[C@H]2c3cc(C(=O)N4CCCC4)[nH]c3C[C@H]2CN1C(=O)c1ccccc1 ?
-0.0205

What do you get for COc1ccc(NN2C(C(O)c3ccco3)C=CC3C(=O)N(C4CCCCC4)C(=O)C32)cc1 (centres undefined) ?
1.22

What do you get for [N-]=[N+]=Nc1ccccc1[C@@H]1OC(c2ccc(OCCCO)cc2)=N[C@]1(CCS(=O)(=O)c1ccccc1)C(=O)NCCN1CCOCC1 ?
1.28

What do you get for COc1ccc([Si](C)(C)[C@@H]2[C@@H](CCn3cc([C@H](O)c4ccccc4)nn3)O[C@]3(C(=O)N(Cc4ccc(N5CCOC5=O)cc4)c4ccccc43)[C@H]2C)cc1 ?
1.06

What do you get for CN(C)CCCCNC(=O)[C@H]1C[C@H]2C(=O)N3CCC[C@H]3C(=O)N2[C@H]1c1ccc(O)cc1 ?
-1.6

What do you get for C[N+](C)(C)CCCC[C@@H]1NC(=O)[C@@H]2C[C@H](C(=O)O)[C@H](c3ccc(O)cc3)N2C1=O ?
-1.65

What do you get for CCOC(=O)C1=C[C@@H](c2ccccc2)N(S(=O)(=O)c2ccc(C)cc2)[C@H]1c1cccc(Cl)c1 ?
1.17

What do you get for [N-]=[N+]=NCc1ccccc1C[C@]1(C(=O)NCC(O)CO)N=C(c2ccc(OCCCO)cc2)O[C@H]1c1ccccc1CN=[N+]=[N-] (some centres undefined) ?
1.2

What do you get for O=C1O[C@@H](c2ccccc2)[C@@H](c2ccccc2)N2[C@@H](c3ccccc3OCCO)[C@]3(C(=O)Nc4ccc(C#CCCO)cc43)[C@@H](C(=O)Nc3nc4ccccc4s3)[C@H]12 ?
1.21

What do you get for CC1CC/C=C\[C@H]2OC34C=CCN(c5ccc6ccccc6c5)C(=O)[C@H]3N(C(CO)C(C)C)C(=O)[C@@H]4C2C(=O)O1 (some centres undefined) ?
0.29

What do you get for NCCCCCNC(=O)[C@@H]1C[C@@H]2C(=O)N[C@@H](CCCCN)C(=O)N2[C@@H]1c1cccc(OCCO)c1 ?
-0.0045

What do you get for COCCCNC(=O)[C@@H]1c2ccccc2C(=O)N(Cc2ccccc2C(F)(F)F)[C@H]1c1ccc(CO)cc1 ?
0.569

What do you get for COc1ccc([Si](C)(C)[C@H]2[C@H](CCn3cc([C@H](O)c4ccccc4)nn3)O[C@@]3(C(=O)N(Cc4ccc(N5CCOC5=O)cc4)c4ccccc43)[C@@H]2C)cc1 ?
-0.993

What do you get for C[C@]1(C(=O)NCCN2CCOCC2)c2ccccc2C(=O)N(Cc2ccc(OC(F)(F)F)cc2)[C@H]1c1ccc(CO)cc1 ?
0.634

What do you get for COCCOC(=O)N1C(=O)[C@@]2(c3ccccc31)[C@H](c1ccc(OCCO)cc1)N1[C@H](c3ccccc3)[C@H](c3ccccc3)OC(=O)[C@H]1[C@@H]2C(=O)Nc1nc2ccccc2s1 ?
1.2

What do you get for CC(C)c1ccc(NN2C(C(O)c3ccco3)C=CC3C(=O)N(c4ccccc4)C(=O)C32)cc1 (centres undefined) ?
1.22

What do you get for C=CC[C@@]12N=C(c3ccc(OCCCO)cc3)O[C@@H]1c1ccccc1N(CCS(=O)(=O)c1ccccc1)C2=O ?
1.22

What do you get for CCCCN1CC=CC23O[C@@H]4C=CCOC(=O)[C@@H]4[C@H]2C(=O)N(C(C)CO)[C@@H]3C1=O (some centres undefined) ?
-1.01

What do you get for CC(C)CN1C(=O)[C@@]2(c3ccc([N+](=O)[O-])cc3)CC(=O)N(CC34CC5CC(CC(C5)C3)C4)[C@@H]2c2ccc(CO)cc21 ?
-0.636

What do you get for CC=CC(O)C1C=CC2C(=O)N(C)C(=O)C2N1Nc1ccc([N+](=O)[O-])cc1[N+](=O)[O-] (centres undefined) ?
-0.935

What do you get for NC(=O)NCC#Cc1ccc2c(c1)[C@]1(C(=O)N2)[C@H](C(=O)Nc2nc3ccccc3s2)[C@H]2C(=O)O[C@H](c3ccccc3)[C@H](c3ccccc3)N2[C@@H]1c1ccc(O)cc1 ?
0.52

What do you get for [N-]=[N+]=NCc1ccccc1C[C@@]1(C(=O)N2CCCCC2)N=C(c2ccc(OCCCO)cc2)O[C@@H]1c1ccccc1N=[N+]=[N-] ?
1.14

What do you get for O=C1NCC(=O)N2[C@@H]1C[C@@H](C(=O)O)[C@H]2c1ccc(O)cc1 ?
1.19
